Numbers sourced from patent US8822517B2.

Answer each item with its documented inhibition at 1 µM.
Target: serotoninergic 5-HT6 receptor (Homo sapiens)
Sequence (P50406 whole entry): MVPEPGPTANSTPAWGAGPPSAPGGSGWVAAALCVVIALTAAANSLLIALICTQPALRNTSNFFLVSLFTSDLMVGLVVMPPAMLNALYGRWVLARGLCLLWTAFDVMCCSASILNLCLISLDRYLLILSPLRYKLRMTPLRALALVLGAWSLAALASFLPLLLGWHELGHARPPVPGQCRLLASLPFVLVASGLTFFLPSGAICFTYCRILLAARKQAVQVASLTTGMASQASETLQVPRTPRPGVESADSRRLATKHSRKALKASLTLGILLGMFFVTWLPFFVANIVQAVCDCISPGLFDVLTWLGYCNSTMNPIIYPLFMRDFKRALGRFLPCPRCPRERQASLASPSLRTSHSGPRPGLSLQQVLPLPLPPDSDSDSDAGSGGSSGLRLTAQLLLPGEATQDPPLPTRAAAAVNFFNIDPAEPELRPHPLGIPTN
Experiment: Binding assay 5-HT6 (h), [3H]LSD, CHO cells
Parameters: expressed in transfected cells; host or cells: CHO cells
Settings: read-out: 5-HT6
One number for each entry, in %.

# annotated cases, reported inhibition at 1 µM shown
Compound	System	inhibition at 1 µM (%)
O=S(=O)(NCCCCN1CCN(c2cccc3c2OCCO3)CC1)c1ccc(F)c(F)c1 [Compound 389]	serotoninergic 5-HT6 receptor (Homo sapiens)	19
O=S(=O)(NCCCN1CCN(c2nsc3ccccc23)CC1)c1ccc2ccccc2c1 [Compound 6]	serotoninergic 5-HT6 receptor (Homo sapiens)	88
O=S(=O)(NCCCCN1CCN(c2nsc3ccccc23)CC1)c1cnc2ccccn12 [Compound 246]	serotoninergic 5-HT6 receptor (Homo sapiens)	49

Need inhibition at 1 µM for each of these compounds.
1. N#Cc1ccc(S(=O)(=O)NCCCCN2CCC(c3noc4cc(F)ccc34)CC2)cc1 [Compound 305]
2. O=S(=O)(NCCCN1CCN(c2cccc3c2OCCO3)CC1)c1csc2ccccc12 [Compound 416]
3. O=S(=O)(NCCCCN1CCC(c2noc3cc(F)ccc23)CC1)c1c[nH]c2ncccc12 [Compound 323]
4. O=S(=O)(NCCCCN1CCN(c2nsc3ccccc23)CC1)c1cc2ccc(Cl)cc2s1 [Compound 241]
5. O=S(=O)(NCCCCN1CCN(c2nsc3ccccc23)CC1)c1cccc(Br)c1 [Compound 230]
6. O=S(=O)(NCCCCN1CCC(c2noc3cc(F)ccc23)CC1)c1ccc(F)cc1 [Compound 294]
7. O=S(=O)(NCCCCN1CCN(c2cccc3c2OCCO3)CC1)c1cccc(F)c1 [Compound 388]
8. O=S(=O)(NCCCN1CCC(c2noc3cc(F)ccc23)CC1)c1ccc2cn[nH]c2c1 [Compound 352]

1: 78; 2: 55; 3: 92; 4: 96; 5: 85; 6: 72; 7: -20; 8: 95

For the 3 compounds below, give their inhibition at 1 µM values.
1. O=S(=O)(NCCCCN1CCN(c2cccc3[nH]ccc23)CC1)c1ccc(F)c(F)c1 [Compound 29]
2. O=c1[nH]c2cccc(N3CCN(CCCCNS(=O)(=O)c4ccc5ccccc5c4)CC3)c2[nH]1 [Compound 419]
3. O=S(=O)(NCCCN1CCC(c2noc3cc(F)ccc23)CC1)c1ccc2c(c1)OCCO2 [Compound 355]

1: 37; 2: 12; 3: 75

Please report inhibition at 1 µM for every entry that follows.
1. O=S(=O)(NCCCCN1CCN(c2nsc3ccccc23)CC1)c1cccc(Cl)c1 [Compound 69]
2. O=S(=O)(NCCCN1CCC(c2noc3cc(F)ccc23)CC1)c1ccc(C(F)(F)F)cc1 [Compound 334]
3. O=S(=O)(NCCN1CCN(c2nsc3ccccc23)CC1)c1cccc2ccccc12 [Compound 9]

1. 88
2. 98
3. 22

Provide the reported inhibition at 1 µM of each entry below, same order.
1. O=S(=O)(NCCCCN1CCC(c2noc3cc(F)ccc23)CC1)c1ccc(Cl)cc1 [Compound 296]
2. O=S(=O)(NCCCCN1CCN(c2cccc3[nH]ccc23)CC1)c1cccc(C(F)(F)F)c1 [Compound 361]
3. O=S(=O)(NCCCN1CCC(c2noc3cc(F)ccc23)CC1)c1ccc2cc(Cl)ccc2c1 [Compound 98]
4. CC(C)(C)c1ccc(S(=O)(=O)NCCCN2CCC(c3noc4cc(F)ccc34)CC2)cc1 [Compound 333]
5. Cc1[nH]c2ccc(Cl)cc2c1C1=CCN(CCCCNS(=O)(=O)c2cccc(O)c2)CC1 [Compound 369]
6. O=S(=O)(NCCCCN1CCN(c2nsc3ccccc23)CC1)c1cccc(C(F)(F)F)c1 [Compound 235]
7. CC(C)(C)c1ccc(S(=O)(=O)NCCCN2CCN(c3nsc4ccccc34)CC2)cc1 [Compound 256]
8. O=S(=O)(NCCCN1CCN(c2cccc3c2OCCO3)CC1)c1cccc(F)c1 [Compound 409]

[83, 70, 98, 93, 99, 82, 95, -9]
